Biological target: Phosphoethanolamine/phosphocholine phosphatase (Homo sapiens) (UniProt Q8TCT1)
Sequence (Q8TCT1 whole entry, looked up): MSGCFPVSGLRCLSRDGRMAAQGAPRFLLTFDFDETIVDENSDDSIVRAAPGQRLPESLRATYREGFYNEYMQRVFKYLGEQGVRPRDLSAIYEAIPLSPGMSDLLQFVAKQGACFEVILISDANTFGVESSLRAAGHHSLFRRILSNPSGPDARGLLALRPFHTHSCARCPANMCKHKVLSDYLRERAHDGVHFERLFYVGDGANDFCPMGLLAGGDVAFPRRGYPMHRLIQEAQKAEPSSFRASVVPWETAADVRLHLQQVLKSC
Test: PubChem AID 1565
Conditions: recombinant PHOSPHO1, absorbance phosphatase assay; at 13.3 µM; stronger effect = higher value
Among all 290,000 compounds or so, about 3,200 (1.1%) were called active. The sample holds actives, similar compounds and a random draw of the others, so the mix is not that of the screen.
MEASURED_ATTRIBUTE: inhibition

> print(dat)
                                   molecule                             tested.target          observed
1  COc1cc(Cl)c(C)cc1NC(=O)CSc1nnc(-c2cccnc2)n1Cc1ccco1  Phosphoethanolamine/phosphocholine phosphatase (Homo sapiens) (UniProt Q8TCT1)  28.9% (inactive)
2  CC(C)Oc1ccc(C(CC(=O)N2CCOCC2)C(C)C)cc1 (stereo unspecified)  Phosphoethanolamine/phosphocholine phosphatase (Homo sapiens) (UniProt Q8TCT1)  52.2% (inactive)
3  O=C(CSc1nnc(-c2cccnc2)n1Cc1ccco1)c1ccc(Cl)cc1  Phosphoethanolamine/phosphocholine phosphatase (Homo sapiens) (UniProt Q8TCT1)    79.6% (active)
4               Oc1ccc(Br)cc1/C=N/Nc1ccccn1  Phosphoethanolamine/phosphocholine phosphatase (Homo sapiens) (UniProt Q8TCT1)  22.9% (inactive)
5  COc1cc(C(=O)OC2CCOC2=O)c([N+](=O)[O-])cc1OC (stereo unspecified)  Phosphoethanolamine/phosphocholine phosphatase (Homo sapiens) (UniProt Q8TCT1)  32.3% (inactive)
6      O=C(OCCN1C(=O)c2ccccc2C1=O)Oc1ccccc1  Phosphoethanolamine/phosphocholine phosphatase (Homo sapiens) (UniProt Q8TCT1)  22.3% (inactive)

###

The following compounds are shown together with reported inhibition values.
Biological target: Phosphoethanolamine/phosphocholine phosphatase (Homo sapiens) (UniProt Q8TCT1)
Assay: PubChem AID 1565
Details: recombinant PHOSPHO1, absorbance phosphatase assay; at 13.3 µM; stronger effect = higher value
Among all 290,000 compounds or so, about 3,200 (1.1%) were called active. Shown is part of a subset that was picked to be rich in actives.
MEASURED_ATTRIBUTE: inhibition (%)

> print(dat)
                                    compound  observed
 1                 S=C(NCCc1ccccc1)Nc1ccccc1      22.6
 2   CCOc1ccccc1Nc1nnc(SCc2ccc(C(=O)OC)o2)s1      48.3
 3  COc1ccc(-c2noc(CCCC(=O)NC3CCCC3)n2)cc1OC      18.5
 4  Cc1ccc(CC2C(=O)N(c3ccc(F)cc3)C(=O)C2C)cc1 (stereo unspecified)      -2.6
 5  CSCc1nnc(NC(=O)c2ccc(S(=O)(=O)N3CCCCC3C)cc2)o1 (stereo unspecified)      32.3
 6               CSc1ncccc1C(=O)NCc1ccccc1Cl      44.9
 7  CCOc1ccc2c(c1)c(=O)c(S(=O)(=O)c1ccc(C)cc1)cn2CC      47.5
 8  Cc1c2cnn(CC(=O)NCc3ccccn3)c(=O)c2c(C)n1Cc1ccc(Cl)cc1        -9
 9          Oc1ccc(C2Nc3cccc4cccc(c34)N2)cc1      14.1
10              Cc1cc(C)c(SCCc2ccncc2)c(C)c1      24.1
11      Oc1ccccc1/C=N/n1c(-c2cccs2)n[nH]c1=S       106
12  O=C(N/N=C/c1ccccn1)c1cccc(NC(=O)c2ccc(Cl)cc2)c1      41.5
13  Cc1noc(C)c1CSCC(=O)N(CCC(C)C)c1c(N)n(Cc2ccccc2)c(=O)[nH]c1=O       9.8
14  Cn1c(-c2sccc2OCc2cccc(C(F)(F)F)c2)n[nH]c1=S      36.7
15  S=c1[nH]nc(-c2cccs2)n1/N=C/c1cn(-c2ccccc2)nc1-c1ccc(Cl)cc1      -132
16          Cc1ccc(C2Nc3cccc4cccc(c34)N2)cc1      13.8
17   CSc1ccc(/C=N\NC(=O)COc2ccc(Cl)cc2Br)cc1     -15.7
18  Cc1cc(/C=N/Nc2ccc([N+](=O)[O-])cn2)c(C)n1-c1cccc(C(=O)O)c1      15.9
19  OC(COc1ccc2ccccc2c1)CN1CCOCC1 (stereo unspecified)         8
20  CC(=O)Oc1ccc2c(=O)oc(-c3ccc([N+](=O)[O-])cc3)nc2c1      35.6
21  Cc1ccc(N2CCN(c3ccc([N+](=O)[O-])cn3)CC2)c(C)c1      19.7
22             Cc1ccc(NC(=S)Nc2ccc(F)cc2)cc1      19.2
23            C=CCn1c(-c2ccccc2OCC)n[nH]c1=S     -30.9
24      O=C(Cn1nnc2ccccc2c1=O)NCc1ccc(Cl)cc1      62.9
25  Cn1c(-c2sc3cc(C(F)(F)F)cnc3c2-c2ccccc2)n[nH]c1=S      96.2
26       O=C(COc1ccc(Cl)cc1Cl)N/N=C/c1ccccn1        61
27  Cc1ccc(C)c(NC(=S)NNC(=S)Nc2ccc(C(C)C)cc2)c1      -6.1
28  CCOC(=O)c1c(C)[nH]c(C)c1S(=O)(=O)NCCCc1ccco1     -28.5
29      C/C(=C\c1ccco1)C1Nc2cccc3cccc(c23)N1        94
30  COc1ccc2c(c1)C(NS(=O)(=O)OCC(Cl)(Cl)Cl)CCC2 (stereo unspecified)      -7.3
31  O=C(CN1CCN(C/C=C/c2ccccc2)CC1)Nc1ccc(F)cc1F      35.8
32            Cc1cc(C)cc(NC(=O)NCc2ccccn2)c1        19
33    N#CC(C#N)=CN=c1ccn(Cc2ccc(Cl)cc2Cl)cc1        34
34                 Cc1ccccc1-c1n[nH]c(=S)n1C      -137
35      CCn1c(SCCC(C)C)nnc1-c1c[nH]c2ccccc12       0.7
36  CCC(C)Sc1nnc(-c2c[nH]c3ccccc23)n1CCOC (stereo unspecified)      61.5
37    C=CCn1c(-c2sc(-c3ccccc3)nc2C)n[nH]c1=S      27.7
38  CC(NC(=O)c1ccccc1C(=O)O)c1ccc(-n2ccnc2)cc1 (stereo unspecified)       8.3
39      C/C(=N\NC(=O)c1ccc2ccccc2c1)c1cccnc1     -19.7
40  COc1ccc(CN(C)C(=O)c2cc(-c3ccc(C)cc3C)nc3ccccc23)c(OC)c1OC      31.9
41  CN(CC(=O)Nc1ccccc1C(F)(F)F)C(=O)Cc1ccccc1F      18.7
42  CN(C(=O)CCN1C(=O)/C(=C/c2ccccc2F)SC1=S)C1CCS(=O)(=O)C1 (stereo unspecified)      52.6
43  Oc1c(C(c2cccs2)N2CCN(c3ccc(F)cc3)CC2)sc2ncnn12 (stereo unspecified)      19.3
44     CC1=C/C(=N\OS(=O)(=O)c2ccccc2)C=CC1=O     -13.3
45  Oc1c(C(c2ccccn2)N2CCOCC2)ccc2cccnc12 (stereo unspecified)      92.7
46  CCOc1cc(N2CCOCC2)c(OCC)cc1NC(=O)COc1cccc2cccnc12      23.3
